Values compiled from BindingDB's records for patent US20240343694.

- target_or_system: Epidermal growth factor receptor [1-763,'FHEA',764-1210] (UniProt P00533)
- Construct: 1-763,'FHEA',764-1210
- protocol_notes: Inhibitory Activity of Compounds Against EGFR Mutant Enzyme
pIC50: −log10 of the molar value.
parameter: pIC50

CCc1cccc(Nc2nc(Cl)ncc2Cl)c1NS(C)(=O)=O | 8.52
C=CC(=O)Nc1cc(N)c(OC)cc1N(C)CCN(C(=O)OCc1ccccc1)C(C)C | 9.00
CC(=O)N(C)c1c(N)ccc(C)c1C | 7.37
CCS(=O)(=O)Nc1ccccc1Nc1nc(Cl)ncc1C | 8.05
C=CC(=O)Nc1cc(Nc2ncc(Cl)c(Nc3cccc4c3N(S(C)(=O)=O)CCC4)n2)c(OC)cc1N(C)CCN(C)C(=O)OC(C)(C)C | 8.00

I: Cc1cccc(Nc2nc(Cl)ncc2Cl)c1N(C)S(C)(=O)=O
II: CCN(c1ccccc1Nc1nc(Cl)ncc1Cl)S(C)(=O)=O
III: COc1cc(N2CCN(C)CC2)c(N)cc1Nc1ncc(Cl)c(Nc2ccccc2NS(C)(=O)=O)n1
Exercise: Arrange these 3 compounds in increasing order of pIC50. Answer format: the labels, ordered as requested.
Key: I, III, II

###

- target_or_system: Epidermal growth factor receptor [DEL746-750] (Homo sapiens)
- protocol_notes: Inhibitory Activity of Compounds Against EGFR Mutant Enzyme
- Procedure: The activity of the compounds of the present invention against EGFR mutant enzymes was measured using the HTRF system purchased from Cisbio as follows. […] Finally, the ratio of fluorescence values at 615 nm and 665 nm was measured using Perkin-Elmer's Envision instrument to calculate enzyme activity and confirm the inhibitory ability of the compounds.
parameter: IC50

A selection of reference data follows.
CCS(=O)(=O)Nc1ccccc1Nc1nc(Cl)ncc1C [US20240343694, Example 27] | 3 nM
CC(=O)N(C)c1c(C)cccc1Nc1nc(Cl)ncc1Cl [US20240343694, Example 88] | < 1 nM
CCc1cccc(Nc2nc(Cl)ncc2Cl)c1NS(C)(=O)=O [US20240343694, Example 50] | < 1 nM
CN(c1ccccc1Nc1nc(Cl)ncc1Cl)S(C)(=O)=O [US20240343694, Example 39] | < 1 nM
C=CC(=O)Nc1cc(Nc2ncc(Cl)c(Nc3ccccc3NS(C)(=O)=O)n2)c(OC)cc1N(C)CCN(C)C(=O)OCc1ccccc1 [US20240343694, Example 35] | < 1 nM

Exercise: Fill in: IC50 on Epidermal growth factor receptor [DEL746-750] (Homo sapiens), entry CN(c1c(Nc2nc(Cl)ncc2Cl)ccc2nccnc12)S(C)(=O)=O [US20240343694, Example 75]
Key: < 1 nM

Exercise: Fill in: IC50 on Epidermal growth factor receptor [DEL746-750] (Homo sapiens), entry Cc1cnc(Cl)nc1Nc1ccccc1NS(C)(=O)=O [US20240343694, Example 24]
Key: < 1 nM

Exercise: Fill in: IC50 on Epidermal growth factor receptor [DEL746-750] (Homo sapiens), entry Cc1ccc(Nc2nc(Cl)ncc2Cl)c(N(C)S(C)(=O)=O)c1 [US20240343694, Example 55]
Key: < 1 nM

Exercise: Fill in: IC50 on Epidermal growth factor receptor [DEL746-750] (Homo sapiens), entry C=CC(=O)Nc1cc(N)c(OC)cc1OCCN1CCCCC1 [US20240343694, Example 81]
Key: < 1 nM

Exercise: Fill in: IC50 on Epidermal growth factor receptor [DEL746-750] (Homo sapiens), entry O=S1(=O)CCCN1c1ccccc1Nc1nc(Cl)ncc1Cl [US20240343694, Example 77]
Key: < 1 nM

###

- target_or_system: Epidermal growth factor receptor [1-763,'FHEA',764-1210] (UniProt P00533)
- Construct: 1-763,'FHEA',764-1210
- protocol_notes: Inhibitory Activity of Compounds Against EGFR Mutant Enzyme
parameter: IC50 (nM)

C=CC(=O)Nc1cc(Nc2ncc(Cl)c(Nc3ccccc3NS(C)(=O)=O)n2)c(OC)cc1N(C)CCN(C)C(=O)OCc1ccccc1 | 3
Cc1cnc(Cl)nc1Nc1ccccc1NS(C)(=O)=O | 3

###

- target_or_system: Epidermal growth factor receptor [1-763,'FHEA',764-1210] (UniProt P00533)
- Construct: 1-763,'FHEA',764-1210
- protocol_notes: Inhibitory Activity of Compounds Against EGFR Mutant Enzyme
pIC50: −log10 of the molar value.
parameter: pIC50

CCS(=O)(=O)N1CCc2cccc(Nc3nc(Cl)ncc3Cl)c21 [US20240343694, Example 66] | > 9.00

Exercise: Consider the molecule C=CC(=O)Nc1cc(N)c(OC)cc1N(C)CCN1CCN(C)CC1 [US20240343694, Example 79] and give its recorded pIC50.
Key: > 9.00

Exercise: Consider the molecule CS(=O)(=O)Nc1c(Nc2nc(Cl)ncc2Cl)ccc2nccnc12 [US20240343694, Example 76] and give its recorded pIC50.
Key: > 9.00

Exercise: Consider the molecule C=CC(=O)Nc1cc(N)c(OC)cc1OCCN1CCCC1 [US20240343694, Example 30] and give its recorded pIC50.
Key: > 9.00

Exercise: Consider the molecule COC(=O)c1cnc(Cl)nc1Nc1cccc2c1N(S(C)(=O)=O)CCC2 [US20240343694, Example 61] and give its recorded pIC50.
Key: > 9.00

Exercise: Consider the molecule C=CC(=O)Nc1cc(N)c(OC)cc1N(C)CCN1CCC1 [US20240343694, Example 82] and give its recorded pIC50.
Key: > 9.00

Exercise: Consider the molecule CN(c1c(Cl)cccc1Nc1nc(Cl)ncc1Cl)S(C)(=O)=O [US20240343694, Example 45] and give its recorded pIC50.
Key: > 9.00

Exercise: Consider the molecule CN(c1ccccc1Nc1nc(Cl)ncc1Cl)S(C)(=O)=O [US20240343694, Example 39] and give its recorded pIC50.
Key: > 9.00

Exercise: Consider the molecule C=CC(=O)Nc1cc(N)c(OC)cc1OCCN1CCCCC1 [US20240343694, Example 81] and give its recorded pIC50.
Key: > 9.00

Exercise: Consider the molecule CS(=O)(=O)n1ccc2cccc(Nc3nc(Cl)ncc3Cl)c21 [US20240343694, Example 74] and give its recorded pIC50.
Key: > 9.00

Exercise: Consider the molecule C=CC(=O)Nc1cc(N)c(OC)cc1OCCN1CCOCC1 [US20240343694, Example 80] and give its recorded pIC50.
Key: > 9.00

###

- target_or_system: Epidermal growth factor receptor [DEL746-750] (Homo sapiens, UniProt P00533)
- Sequence (P00533 with tags, fused parts or gaps DEL746-750 limits assumed, stated change not applied): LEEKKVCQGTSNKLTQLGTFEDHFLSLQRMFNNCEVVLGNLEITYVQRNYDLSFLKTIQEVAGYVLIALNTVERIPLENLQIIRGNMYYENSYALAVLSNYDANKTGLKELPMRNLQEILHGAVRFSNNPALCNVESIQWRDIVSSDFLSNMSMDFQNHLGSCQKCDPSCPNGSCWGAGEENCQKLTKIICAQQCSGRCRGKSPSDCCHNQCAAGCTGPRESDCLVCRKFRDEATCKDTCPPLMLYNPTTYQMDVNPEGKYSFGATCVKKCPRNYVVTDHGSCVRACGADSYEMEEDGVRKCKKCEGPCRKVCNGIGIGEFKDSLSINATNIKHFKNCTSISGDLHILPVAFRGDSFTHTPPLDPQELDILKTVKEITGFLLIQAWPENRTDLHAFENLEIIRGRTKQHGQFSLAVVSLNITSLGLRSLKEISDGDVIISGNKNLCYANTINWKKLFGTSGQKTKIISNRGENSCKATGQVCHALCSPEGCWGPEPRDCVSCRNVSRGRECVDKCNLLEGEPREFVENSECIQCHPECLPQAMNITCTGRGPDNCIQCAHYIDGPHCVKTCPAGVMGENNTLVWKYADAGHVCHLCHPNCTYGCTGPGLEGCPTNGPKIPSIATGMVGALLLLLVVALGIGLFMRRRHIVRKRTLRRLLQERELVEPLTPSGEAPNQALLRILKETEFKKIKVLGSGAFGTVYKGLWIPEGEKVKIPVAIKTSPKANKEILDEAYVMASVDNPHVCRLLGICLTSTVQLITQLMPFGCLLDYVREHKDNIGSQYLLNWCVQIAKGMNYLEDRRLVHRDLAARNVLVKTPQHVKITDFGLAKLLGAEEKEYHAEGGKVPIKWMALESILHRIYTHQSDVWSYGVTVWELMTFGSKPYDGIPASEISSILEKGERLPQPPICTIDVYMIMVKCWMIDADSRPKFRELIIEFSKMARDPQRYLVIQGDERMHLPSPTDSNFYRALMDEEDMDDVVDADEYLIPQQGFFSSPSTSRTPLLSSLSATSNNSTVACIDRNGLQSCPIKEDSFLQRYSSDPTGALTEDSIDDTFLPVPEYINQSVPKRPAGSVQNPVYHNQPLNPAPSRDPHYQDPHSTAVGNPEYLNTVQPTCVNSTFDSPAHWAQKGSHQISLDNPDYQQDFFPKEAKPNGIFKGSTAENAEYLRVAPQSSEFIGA
- protocol_notes: Inhibitory Activity of Compounds Against EGFR Mutant Enzyme
parameter: IC50

A selection of reference data follows.
C=CC(=O)Nc1cc(N)c(OC)cc1N1CCC(N2CCN(C)CC2)CC1 | < 1 nM
CC(=O)Nc1c(Nc2nc(Cl)ncc2Cl)ccc(C)c1C | 4 nM
CC(=O)Nc1c([N+](=O)[O-])ccc(C)c1C | 3 nM
CC(C)c1cccc(Nc2nc(Cl)ncc2Cl)c1N(C)S(C)(=O)=O | < 1 nM
COC(=O)c1cnc(Cl)nc1Nc1cccc2c1N(S(C)(=O)=O)CCC2 | < 1 nM
COc1cc(N2CCN(C)CC2)c(N)cc1Nc1ncc(Cl)c(Nc2ccccc2NS(C)(=O)=O)n1 | < 1 nM
CS(=O)(=O)N1CCc2cccc(Nc3nc(Cl)ncc3Cl)c21 | < 1 nM
C=CC(=O)Nc1cc(N)c(OC)cc1N(C)CCN1CCCCC1 | < 1 nM

Exercise: Consider the compound `C=CC(=O)Nc1cc(N)c(OC)cc1N(C)CCN1CCN(C)CC1` and give its recorded IC50.
Key: < 1 nM

Exercise: Consider the compound `O=S1(=O)CCCCN1c1ccccc1Nc1nc(Cl)ncc1Cl` and give its recorded IC50.
Key: < 1 nM

Exercise: Consider the compound `C=CC(=O)Nc1cc(N)c(OC)cc1N(C)CCN(C(=O)OCc1ccccc1)C(C)C` and give its recorded IC50.
Key: < 1 nM

###

- target_or_system: Epidermal growth factor receptor [1-763,'FHEA',764-1210] (UniProt P00533)
- Construct: 1-763,'FHEA',764-1210
- protocol_notes: Inhibitory Activity of Compounds Against EGFR Mutant Enzyme
parameter: IC50

A selection of reference data follows.
Cc1ccc(Nc2nc(Cl)ncc2Cl)c(NS(C)(=O)=O)c1 | < 1 nM
CC(C)OC(=O)c1cnc(Cl)nc1Nc1cccc2c1N(S(C)(=O)=O)CC2 | < 1 nM

API: the following record is the query input.
Exercise: Consider the compound `CS(=O)(=O)Nc1c(Cl)cccc1Nc1nc(Cl)ncc1Cl` and give its recorded IC50.
Key: < 1 nM
